Reported Control serum Blood-bank linear peptides values follow for various sequences
tested on: control serum Blood-bank (commercial negative donor pooled serum); type: binding, human
Form: value (number only, do not type unit).

Recorded results for 8 sequences are shown here.
seq_string	target_or_system	Control serum Blood-bank linear peptides
CFLAFLLFLVLIMLI	control serum Blood-bank (commercial negative donor pooled serum)	0.6
VIQEIQLLAAVGEIL	control serum Blood-bank (commercial negative donor pooled serum)	0.4
LEWLAEVVKLPSRYC	control serum Blood-bank (commercial negative donor pooled serum)	0.4
VLIMLIIFWFSLEIQ	control serum Blood-bank (commercial negative donor pooled serum)	0.8
LIIFWFSLEIQDLEE	control serum Blood-bank (commercial negative donor pooled serum)	0.8
TQREAEAAVKPLLAP	control serum Blood-bank (commercial negative donor pooled serum)	0.4
IIFWFSLEIQDLEEP	control serum Blood-bank (commercial negative donor pooled serum)	0.9
KASTQREAEAAVKPL	control serum Blood-bank (commercial negative donor pooled serum)	0.3

The record that follows has no Control serum Blood-bank linear peptides shown yet.
*Q* Let me know recorded Control serum Blood-bank linear peptides for PPCYNFLKEQHCQKA , thanks.
*A* 0.2
